The reported numbers originate from ChEMBL document CHEMBL4513216.

- System: Plasmodium berghei
- run description: Screen against P. berghei liver stage (PbLuc), transformed with Luciferase, at 10uM
- Type: functional, HepG2
- protocol conditions: tested at 10 uM
About 8,600 (12%) of roughly 69,000 compounds showed an effect of 50% or more. What follows is part of a selection rich in strong results, with near analogues and random picks from the rest.
Lab note: anything with INHIBITION at or over 30% counts as t; the rest go in f.

Take a look at these entries with their results.
COc1ccccc1C(=O)NC(CC(=O)O)c1cccs1 (stereo not given); f
CN(C)c1ccc(-c2cccc(-c3ccn(CCCO)n3)c2)nn1; f
Cc1cc(N2CCC(n3cc(CCCO)nn3)CC2)ccn1; t
CNCC(=O)N1CCCC1c1n[nH]cc1-c1ccccc1F (stereo not given); f
COCC(O)CNC(=O)Nc1c(F)cc(F)cc1-c1ccccc1 (stereo not given); f
CNc1ncc(-c2ccnn2C2CCN(C(C)=O)CC2)cn1; t

Could you please find out whether CN(C(=O)c1ccccc1N(C)S(C)(=O)=O)c1ccc(C(C)(C)C)cc1 has INHIBITION that meets 30% or exceeds it?
t

Evaluate CCN(CC)c1nc(C)cc(C(=O)Nc2cccc(C(N)=O)c2)n1 : INHIBITION at minimum 30%?
f

Is INHIBITION at least 30%? Consider COc1cccc(-c2n[nH]cc2C(=O)NC(C)CC(=O)O)c1 (stereo not given)
t

---

- Tested on: Plasmodium berghei
- run description: Screen against P. berghei liver stage (PbLuc), transformed with Luciferase, at 10uM
- Format: functional, HepG2
- protocol conditions: tested at 10 uM
Among all 69,000 compounds or so, about 8,600 (12%) showed an effect of 50% or more. The sample as a whole holds a higher share of strong results than the screen did.
test readout: INHIBITION
Answers without a unit are incomplete; give the number and then its unit.

The cases that follow already have their INHIBITION on record.
CC(C)c1nc(C2CCCN2CC(=O)Nc2nncs2)no1 (stereo not drawn); 10.2%
CC(C)c1cc(NC(=O)CN2CCCC2c2noc(C(C)C)n2)on1 (stereo not drawn); 52.3%

# get_value(readout='INHIBITION', item= O=C(Nc1ccccc1)N1CCc2nc(C(=O)N3CCCC3)sc2CC1 )
89.1%

---

Listed below: INHIBITION values for each entry.
- Test system: Plasmodium berghei
- run description: Screen against P. berghei liver stage (PbLuc), transformed with Luciferase, at 10uM
- Assay type: functional, HepG2
- protocol conditions: tested at 10 uM
The whole screen tested about 69,000 compounds, of which about 8,600 (12%) showed an effect of 50% or more. This is one part of a sample in which strong results are shown more often than they occur.
Dear colleague, please return just the value in %, with no unit written.

Recorded results for 4 compounds are shown here.
CC(C)Nc1n[nH]c2nc(C3CCN(C(=O)c4ccccn4)C3)ccc12 (stereo not given); -7.66
Cc1nn(C(C)C)c(C)c1NC(=O)c1cccnc1; 7.18
COc1ccc(C(=O)n2nc(C)c(C)c2C)cc1; 30.7
c1cnn(Cc2ccc(CN3CCC4(CCNCC4)C3)cc2)c1; 60.3

Turning now to a further compound:
Requested field: INHIBITION. Item: COc1ccc(-n2cccn2)c(CN2CCC3(CCNCC3)C2)c1
53
